B1: CPEB3 Ribozyme (parent)
chain: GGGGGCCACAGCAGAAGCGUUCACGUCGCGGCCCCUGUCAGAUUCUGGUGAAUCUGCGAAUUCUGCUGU

variants of: B1; experiment: self-cleavage, relative activity (ratio to wild type); higher = more cleavage; co-transcriptional
property_name: self-cleavage

mutant_code	property_name	numeric_value
C12U C33A	self-cleavage	0.924
G5A U36G	self-cleavage	0.521
A8C A51G	self-cleavage	0.962
G14C G58C	self-cleavage	0.497
A8U C63G	self-cleavage	0.782
C34U C63A	self-cleavage	0.869
G2U C32A	self-cleavage	0.107
C45G U49A	self-cleavage	0.987
C35G G65C	self-cleavage	0.374
C34G G65A	self-cleavage	0.58
G14C A23G	self-cleavage	0.365
U61A U69G	self-cleavage	1.02
G4C C63G	self-cleavage	0.211
U46G A52C	self-cleavage	0.942
G31A U69C	self-cleavage	1.03
A51C C57G	self-cleavage	0.38
A10G C35A	self-cleavage	0.197
G1U A8G	self-cleavage	0.0916
C9A U36A	self-cleavage	0.315
C54G G58A	self-cleavage	0.849
A52G C54G	self-cleavage	0.861
C18A G19A	self-cleavage	0.135
A15U G25C	self-cleavage	0.165
G47A U62G	self-cleavage	0.959
A16G U69C	self-cleavage	1.08
G11A C32U	self-cleavage	0.95
C7G C9U	self-cleavage	0.844
A15G U38A	self-cleavage	0.877
U20A C24G	self-cleavage	0.0902
U21G U67C	self-cleavage	0.458
G17U G47U	self-cleavage	0.661
A15U G41A	self-cleavage	0.28
U20C U21G	self-cleavage	0.211

All figures here come from the RNAGym collection of RNA variant scans (doi:10.7554/elife.80360).
